Tested on: avian osteoclasts
Experiment: Osteoclastic bone resorption assay (3H proline release from labeled bone)
Assay type: cell-based, avian (white Leghorn hens)
Details: Osteoclast, 96 h, read-out: K0.5 of stimulation of bone resorption

MOLECULE: CCCCCCCCCCCCCC(=O)O[C@@H]1[C@@H](C)[C@@]2(O)[C@@H](C=C(CO)C[C@]3(O)C(=O)C(C)=C[C@@H]23)[C@@H]2C(C)(C)[C@]12OC(C)=O [PMA, phorbol myristate acetate]
EC50: 100 to 300 nM
